Test system: SK-LMS-1 (Other Solid Carcinomas);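 note: after 72 h of two-drug dosing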
Test: Bliss excess, mean over the matrix (fraction); higher = more synergy
measure name: Bliss excess
// no unit, no text: just the number

Query COc1cccc(OCCCN)c1-c1cc(Nc2cnc(C#N)cn2)n[nH]1 [Prexasertib] + CCc1c2c(nc3ccc(O)cc13)-c1cc3c(c(=O)n1C2)COC(=O)[C@]3(O)CC [SN-38] (first compound max 1 µM, 7x7, partner max 0.3 µM) yields Bliss excess of -0.0239

Query CC1(C)CCC(CN2CCN(c3ccc(C(=O)NS(=O)(=O)c4ccc(NCC5CCOCC5)c([N+](=O)[O-])c4)c(Oc4cnc5[nH]ccc5c4)c3)CC2)=C(c2ccc(Cl)cc2)C1 [Venetoclax] + C[C@@H]1COCCN1C2=NC(=NC(=C2)C3(CC3)[S@](=N)(=O)C)C4=C5C=CNC5=NC=C4 [AZD6738] (first compound max 1 µM, 7x7, partner max 10 µM) yields Bliss excess of -0.0884

Query NC1(C(=O)N[C@@H](CCO)c2ccc(Cl)cc2)CCN(c2ncnc3[nH]ccc23)CC1 [Capivasertib] + CCN(CCO)CCCOc1ccc2c(Nc3cc(CC(=O)Nc4cccc(F)c4)[nH]n3)ncnc2c1 [AZD2811] (first compound max 10 µM, 7x7, partner max 1 µM) yields Bliss excess of -0.0055

Query CC1(C)CCC(CN2CCN(c3ccc(C(=O)NS(=O)(=O)c4ccc(NCC5CCOCC5)c([N+](=O)[O-])c4)c(Oc4cnc5[nH]ccc5c4)c3)CC2)=C(c2ccc(Cl)cc2)C1 [Venetoclax] + CS(=O)(=O)CCNCc1ccc(-c2ccc3ncnc(Nc4ccc(OCc5cccc(F)c5)c(Cl)c4)c3c2)o1 [Lapatinib] (first compound max 1 µM, 7x7, partner max 10 µM) yields Bliss excess of -0.0127

Query CS(=O)(=O)CCNCc1ccc(-c2ccc3ncnc(Nc4ccc(OCc5cccc(F)c5)c(Cl)c4)c3c2)o1 [Lapatinib] + Cn1cnc2c(F)c(Nc3ccc(Br)cc3Cl)c(C(=O)NOCCO)cc21 [Selumetinib] (first compound max 10 µM, 7x7, partner max 10 µM) yields Bliss excess of 0.0047

Query CCN(CCO)CCCOc1ccc2c(Nc3cc(CC(=O)Nc4cccc(F)c4)[nH]n3)ncnc2c1 [AZD2811] + C[C@@H]1COCCN1C2=NC(=NC(=C2)C3(CC3)[S@](=N)(=O)C)C4=C5C=CNC5=NC=C4 [AZD6738] (first compound max 1 µM, 7x7, partner max 10 µM) yields Bliss excess of -0.0249

Query CN(C)CCCOc1ccc(-c2ccc3ncc4c(c3c2)n(C2CCOCC2)c(=O)n4C)cn1 [AZD0156] + C=CCn1c(=O)c2cnc(Nc3ccc(N4CCN(C)CC4)cc3)nc2n1-c1cccc(C(C)(C)O)n1 [AZD1775] (first compound max 1 µM, partner max 1 µM) yields Bliss excess of -0.0203

Query COc1nnc2ccc(N3CCC(c4ccc(OCCN5CCN(C)C(=O)[C@H]5C)cc4)CC3)nn12 [AZD5153] + C=CCn1c(=O)c2cnc(Nc3ccc(N4CCN(C)CC4)cc3)nc2n1-c1cccc(C(C)(C)O)n1 [AZD1775] (first compound max 1 µM, partner max 1 µM) yields Bliss excess of -0.0353

Query NC1(C(=O)N[C@@H](CCO)c2ccc(Cl)cc2)CCN(c2ncnc3[nH]ccc23)CC1 [Capivasertib] + Cn1cnc2c(F)c(Nc3ccc(Br)cc3Cl)c(C(=O)NOCCO)cc21 [Selumetinib] (first compound max 10 µM, 7x7, partner max 10 µM) yields Bliss excess of 0.0883

Query N#Cc1cnc(Nc2cc(NC[C@H]3CNCCO3)c(C(F)(F)F)cn2)cn1 [SRA737] + O=c1[nH]cc(F)c(=O)[nH]1 [5-Fluorouracil] (first compound max 10 µM, 7x7, partner max 20 µM) yields Bliss excess of -0.0143

Query COc1cc2ncnc(Nc3ccc(F)c(Cl)c3)c2cc1OCCCN1CCOCC1 [Gefitinib] + CC(C)n1c(=O)n(C)c2cnc3cc(F)c(-c4ccc(OCCCN5CCCCC5)nc4)cc3c21 [AZD1390] (first compound max 10 µM, 7x7, partner max 0.3 µM) yields Bliss excess of -0.0726

Query C[C@@H](c1ccc2nccn2c1)n1nnc2ncc(-c3cnn(C)c3)nc21 [Savolitinib] + Cc1c2c(nn1C)CSCc1cc(n(C)n1)CSc1cc(c3ccccc3c1)OCCCc1c(C(=O)O)n(C)c3c-2c(Cl)ccc13 [AZD5991] (first compound max 1 µM, 7x7, partner max 1 µM) yields Bliss excess of 0.0027

Query CN(CCO)CC[C@H](CSc1ccccc1)Nc1ccc(S(=O)(=O)NC(=O)c2ccc(N3CCC([C@@H](O)c4ccccc4-c4ccc(Cl)cc4)CC3)cc2)cc1S(=O)(=O)C(F)(F)F [AZD4320] + Nc1ccn([C@@H]2O[C@H](CO)[C@@H](O)C2(F)F)c(=O)n1 [Gemcitabine] (first compound max 1 µM, 7x7, partner max 0.3 µM) yields Bliss excess of 0.0273

Query N#Cc1cnc(Nc2cc(NC[C@H]3CNCCO3)c(C(F)(F)F)cn2)cn1 [SRA737] + CCc1c2c(nc3ccc(O)cc13)-c1cc3c(c(=O)n1C2)COC(=O)[C@]3(O)CC [SN-38] (first compound max 10 µM, 7x7, partner max 0.3 µM) yields Bliss excess of -0.0248
